Below, each entry is listed with its recorded pIC50.
Target: T1, cynomolgus IL-17A (cynomolgus, UniProt Q16552 24-155 (human entry), limits assumed)
T1 construct: also called cyno IL-17A; cynoIL-17A
T1 chain: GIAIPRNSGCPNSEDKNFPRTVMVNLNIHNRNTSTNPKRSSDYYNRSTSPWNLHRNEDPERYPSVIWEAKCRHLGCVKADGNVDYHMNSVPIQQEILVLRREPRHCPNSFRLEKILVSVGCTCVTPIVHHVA
Assay: competition ELISA: mAb against biotinylated cyno IL-17A binding to coated IL-17RA-Fc
Would you please state pIC50, meaning minus log10 of the concentration in mol/L, as a bare number?

Consider the reported pIC50 for these binders:
{"columns": ["Binder", "pIC50"],
 "data": [
  ["mAb7024 (antibody, human IgG1, lambda, V domains shown, Framework-engineered mAb; also called engineered form of MOR8104) VH: QVQLVQSGAEVKKPGSSVKVSCKASGGTFSSYAISWVRQAPGQGLEWMGSIIPWFGTTNYAQKFQGRVTITADESTSTAYMELSSLRSEDTAVYYCARDSEYYFDHWGQGTLVTVSS VL: DIQMTQSPSSVSASVGDRVTITCRASQGISNWLNWYQQKPGKAPKLLIYAASSLQSGVPSRFSGSGSGTDFTLTISSLQPEDFATYYCQQYSDDPTFGQGTKVEIKG", 9.93],
  ["mAb7146 (antibody, human IgG1, lambda, V domains shown, Framework-engineered mAb; also called engineered form of MOR8160) VH: QVQLLESGGGLVQPGGSLRLSCAASGFTFSSYAMSWVRQAPGKGLEWVSTISMTSGFTYYADSVKGRFTISRDNSKNTLYLQMNSLRAEDTAVYYCARQLTLDVWGQGTLVTVSS VL: QSVLTQPPSVSVAPGQTARISCSGDNLGDKYANWYQQKPGQAPVLVIYDDIDRPSGIPERFSGSNSGNTATLTISGTQAEDEADYYCGSYDFFLGLIVFGGGTKLTVLG", 10.17]
]}

We now examine a further binder.
Inquiry: Name the recorded pIC50 for mAb624 (antibody, human IgG1, lambda, V domains shown, Framework-engineered mAb; also called engineered form of MOR7708) VH: QVQLVQSGAEVKKPGSSVKVSCKASGGTFSSYAISWVRQAPGQGLEWMGRIIPWFGWTSYAQKFQGRVTITADESTSTAYMELSSLRSEDTAVYYCARDSEYYFDHWGQGTLVTVSS VL: DIQMTQSPSSVSASVGDRVTITCRASQGISNWLNWYQQKPGKAPKLLIYAASSLQSGVPSRFSGSGSGTDFTLTISSLQPEDFATYYCQQYSDDPTFGQGTKVEIKG .
Reply text: 10.29
